Each recorded value in this set is attributed to ChEMBL document CHEMBL4706550.

targetOrTestSystem: Neuronal acetylcholine receptor subunit alpha-7 (Homo sapiens)
Sequence (P36544 whole entry): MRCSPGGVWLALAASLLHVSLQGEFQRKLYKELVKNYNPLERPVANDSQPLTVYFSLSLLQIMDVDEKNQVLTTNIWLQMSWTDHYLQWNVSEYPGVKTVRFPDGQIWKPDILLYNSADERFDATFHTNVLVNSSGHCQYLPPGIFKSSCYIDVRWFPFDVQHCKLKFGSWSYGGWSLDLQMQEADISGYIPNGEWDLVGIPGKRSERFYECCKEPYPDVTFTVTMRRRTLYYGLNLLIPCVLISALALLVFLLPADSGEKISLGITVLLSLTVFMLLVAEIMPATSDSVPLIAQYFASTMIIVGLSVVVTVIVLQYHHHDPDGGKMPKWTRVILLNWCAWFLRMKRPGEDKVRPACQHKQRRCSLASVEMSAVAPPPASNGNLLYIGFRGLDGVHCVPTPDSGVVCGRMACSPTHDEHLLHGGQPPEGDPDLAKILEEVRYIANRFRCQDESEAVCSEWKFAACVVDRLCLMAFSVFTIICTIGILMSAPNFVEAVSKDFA
protocolText: Antagonist activity at human alpha7 nAChR expressed in Xenopus laevis oocytes assessed as inhibition of Ach-induced current at 100 uM measured at holding potential of -90 mV by two electrode voltage-clamp assay relative to control
Format: cell-based
cond: Oocyte, filed as antagonist
property: inhibition (%)
The figure you give is taken to be in %; do not add the unit.

Below, each entry is followed by its recorded inhibition result.
> print(dat)
                       smilesrepresentation                        targetortestsystem  reportedmeasurement
1    c1ccc(C2=NOC3(CCN(Cc4ccccn4)CC3)N2)cc1  Neuronal acetylcholine receptor subunit alpha-7 (Homo sapiens)                 70.2
2  COc1cc(-c2ccc(C3=NOC4(CCN(C)CC4)N3)cc2)ccn1  Neuronal acetylcholine receptor subunit alpha-7 (Homo sapiens)                 93.4
3  c1ccc(CN2CCC3(CC2)NC(c2ccc(-c4ccncc4)cc2)=NO3)cc1  Neuronal acetylcholine receptor subunit alpha-7 (Homo sapiens)                 75.2
4       CCOC(=O)N1CCC2(CC1)NC(c1ccccc1)=NO2  Neuronal acetylcholine receptor subunit alpha-7 (Homo sapiens)                 75.1

**Q:** Report inhibition for CC(C)(C)OC(=O)N1CCC2(CC1)NC(c1ccccc1)=NO2 please.
**A:** 73.5

**Q:** Report inhibition for Oc1cccc(-c2ccc(C3=NOC4(CCN(Cc5ccccc5)CC4)N3)cc2)c1 please.
**A:** 80.4

---

Item-by-item account of inhibition
targetOrTestSystem: Neuronal acetylcholine receptor subunit alpha-7 (Homo sapiens)
protocolText: Antagonist activity at human alpha7 nAChR expressed in Xenopus laevis oocytes assessed as inhibition of Ach-induced current at 30 uM measured at holding potential of -90 mV by two electrode voltage-clamp assay relative to control
Format: cell-based
cond: Oocyte, filed as antagonist
The figure you give is taken to be in %; do not add the unit.

Below, each entry is followed by its recorded inhibition result.
> print(dat)
                       smilesrepresentation  units  reportedmeasurement
1          CN1CCC2(CC1)NC(c1ccc(Br)nc1)=NO2      %                 44.1
2   Fc1cccc(C2=NOC3(CCN(Cc4ccccc4)CC3)N2)c1      %                 65.9
3  Nc1cccc(-c2ccc(C3=NOC4(CCN(Cc5ccccc5)CC4)N3)cc2)c1      %                 60.1

**Q:** Report inhibition for c1ccc(CN2CCC3(CC2)NC(c2ccccc2)=NO3)cc1 please.
**A:** 70.4

**Q:** Report inhibition for c1ccc(CN2CCC3(CC2)NC(C2CC2)=NO3)cc1 please.
**A:** 52.2

**Q:** Report inhibition for Clc1ccc(C2=NOC3(CCN(Cc4ccccc4)CC3)N2)cc1 please.
**A:** 77.4

**Q:** Report inhibition for CN1CCC2(CC1)NC(c1ccccc1)=NO2 please.
**A:** 90.4

**Q:** Report inhibition for c1ccc(CN2CCC3(CC2)NC(c2ccc(-c4cccnc4)cc2)=NO3)cc1 please.
**A:** 65

**Q:** Report inhibition for CN1CCC2(CC1)NC(c1nccs1)=NO2 please.
**A:** 69.7

**Q:** Report inhibition for CN1CCC2(CC1)NC(c1ccc(Br)cc1)=NO2 please.
**A:** 91.8

**Q:** Report inhibition for c1ccc(CN2CCC3(CC2)NC(c2cc4ccccc4cn2)=NO3)cc1 please.
**A:** 76.6

**Q:** Report inhibition for COc1cc(-c2ccc(C3=NOC4(CCN(Cc5ccccc5)CC4)N3)cc2)ccn1 please.
**A:** 54.7

**Q:** Report inhibition for c1ccc(CN2CCC3(CC2)NC(c2nccs2)=NO3)cc1 please.
**A:** 65.1

**Q:** Report inhibition for Nc1cccc(-c2ccc(C3=NOC4(CCN(Cc5ccccc5)CC4)N3)cn2)c1 please.
**A:** 61.8
